Source: patent US20130217678A1

Documented melting point across a set of compounds

SMILES	melting point
CCCOc1ccc(C)c2c(=O)c(-c3ccccc3OC)c[nH]c12	221 to 223 °C
CCCOc1ccc(-c2ccccc2)c2c(=O)c(-c3ccc(OC)cc3)c[nH]c12	186 to 187 °C
CCCN(C)c1ccc(C)c2c(=O)c(-c3ccc(OC)cc3)c[nH]c12	159 to 161 °C
CCCOc1ccc(OC)c2c(=O)c(-c3cccc(OC)c3OC)c[nH]c12	145 to 148 °C
CCCOc1ccc(COC)c2c(=O)c(-c3ccc(OC)cc3)c[nH]c12	81 to 83 °C

====

activity at 0.03 µg/mL for assorted compounds
test system: human neuroblastoma cell lines SH-SY5Y treated with 1-methyl-4-phenylpyridinium (MPP+); experiment: Improvement of mitochondrial function (Alamar Blue mitochondrial oxidation reduction activity) in MPP+-treated SH-SY5Y cells; format: cell-based; details: compound 0.03 μg/ml, 1.5 mM MPP+, relative to cells in DMSO alone = 100%, read-out: Fluorescence Intensity (%)

SMILES	activity at 0.03 µg/mL
CCCOc1ccc(C2CC2)c2c(=O)c(-c3ccc(OC)cc3)c[nH]c12	73%
CCCOc1ccc(C)c2c(=O)c(-c3ccsc3)c[nH]c12	53%
CCCOc1ccc(C(F)(F)F)c2c(=O)c(-c3ccc(OC)cc3)c[nH]c12	57%
COc1ccc(-c2c[nH]c3c(OCC4CC4)cc(C)c(C)c3c2=O)cc1	70%
CCn1cc(-c2ccc(OC)cc2)c(=O)c2ccc(OC)cc21	73%
CCCOc1ccc(C(=O)N(C)C)c2c(=O)c(-c3ccc(OC)cc3)c[nH]c12	57%
CCCSc1ccc(C)c2c(=O)c(-c3ccc(OC)cc3)c[nH]c12	56%
COc1ccc(OCC2CC2)c2[nH]c(C)c(-c3ccco3)c(=O)c12	62%
COc1ccc(-c2c[nH]c3c(Oc4ccccc4)cccc3c2=O)cc1	45%
COc1ccc(-c2c[nH]c3c(Br)ccc(C)c3c2=O)cc1	65%
CCCOc1ccc(C)c2c(=O)c(-c3ccc(OC)cc3OC)c[nH]c12	67%
CCCOc1ccc(OC)c2c(=O)c(-c3cccc4ccccc34)c[nH]c12	45%
COc1ccc(-c2c[nH]c3c(-c4ccco4)ccc(C)c3c2=O)cc1	64%
CCCCc1ccc(C(=O)N(C)C)c2c(=O)c(-c3ccc(OC)cc3)c[nH]c12	62%
CCCOc1ccc(C)c2c(=O)c(-c3ccc(OC)cc3)c[nH]c12	68%
CCCOc1cccc2c(=O)c(-c3ccccc3C(F)(F)F)c[nH]c12	53%
CCCOc1cc(F)cc2c(=O)c(-c3ccc(OC)cc3)c[nH]c12	53%
CCCOc1c(OC)cc(C)c2c(=O)c(-c3ccc(OC)cc3)c[nH]c12	54%
CCCOc1ccc(COC)c2c(=O)c(-c3ccc(OC)cc3)c[nH]c12	56%
CCCOc1ccc(C)c2c(=O)c(-c3ccc4c(c3)OCO4)c[nH]c12	65%
COc1ccc(-c2c[nH]c3c(N4CCCC4)ccc(C)c3c2=O)cc1	56%
